- system.under.test: SSTR2 (Homo sapiens, UniProt P30874)
- Sequence (P30874 whole entry): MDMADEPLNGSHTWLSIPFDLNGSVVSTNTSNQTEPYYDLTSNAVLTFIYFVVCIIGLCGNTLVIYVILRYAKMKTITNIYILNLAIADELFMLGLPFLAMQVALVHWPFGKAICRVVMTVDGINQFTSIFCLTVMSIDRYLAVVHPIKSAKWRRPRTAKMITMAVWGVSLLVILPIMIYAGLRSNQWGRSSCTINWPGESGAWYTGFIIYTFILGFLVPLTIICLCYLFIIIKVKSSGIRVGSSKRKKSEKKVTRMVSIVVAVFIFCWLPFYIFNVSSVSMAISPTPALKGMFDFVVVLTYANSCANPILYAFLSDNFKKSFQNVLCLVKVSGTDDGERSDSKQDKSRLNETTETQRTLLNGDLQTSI
- procedure.details: SSTR binding affinity by radioligand binding competition assay ([125I]-Tyr11-Somatostatin, membrane extracts)
- condition.label: radioligand competition, [125I]-Tyr11-Somatostatin 0.1 nM, membrane extracts; Ki from IC50 by Cheng Prusoff; read-out: SSTR2 Ki
Numbered stars: 1 amine (or outer) side, 2 acyl side, 3 side chain; on linkers, the order of the positions; unused ones are H or OH. Square brackets hold non-standard residues; d marks the D form. Peptide text beside a SMILES is read from it. * marks the point of attachment. DOTA(Lu)NH(CH2)6NHCOCH2 = O=C(CN1CCN2CCN3CCN(CC1)CC(=O)[O][Lu]([O]C(=O)C2)[O]C(=O)C3)NCCCCCCNC(=O)C*; X6 = O=C(CN1CCN2CCN3CCN(CC1)CC(=O)[O][Lu]([O]C(=O)C2)[O]C(=O)C3)NCCOCCOCCOCCNC(=O)C*; X17 = O=C(CN1CCN2CCN3CCN(CC1)CC(=O)[O][Lu]([O]C(=O)C2)[O]C(=O)C3)NCCNC(=O)C*; DOTA(Lu) = O=C1CN2CCN3CCN(CC(=O)*)CCN(CC2)CC(=O)[O][Lu]([O]1)[O]C(=O)C3; Ala(piperidin-4-yl) = O=C([C@H](CC1CCN([*:3])CC1)N[*:1])[*:2]; dTrp(βS-Me) = C[C@@H](c1c[nH]c2ccccc12)[C@@H](N)C(=O)O; dTpi = O=C(O)[C@H]1Cc2c([nH]c3ccccc23)CN1; dNMeW = CN[C@H](Cc1c[nH]c2ccccc12)C(=O)O; X2 = O=C([C@H](CCC1CNC1)N[*:1])[*:2]; 3Pal = N[C@@H](Cc1cccnc1)C(=O)O; 4Pal = N[C@@H](Cc1ccncc1)C(=O)O; Lys(Me) = CNCCCC[C@H](N)C(=O)O; NMehCys = CN[C@@H](CCS)C(=O)O; NMeK = CN[C@@H](CCCCN)C(=O)O
readout.label: Ki

>>> assay_value("C[C@H](O)[C@@H]1NC(=O)[C@H](CCCCN)NC(=O)[C@@H](Cc2c[nH]c3ccccc23)NC(=O)[C@H](Cc2ccc(O)cc2)NC(=O)[C@H](CCSCC(=O)NCCOCCOCCOCCNC(=O)CN2CCN3CCN4CCN(CC2)CC(=O)[O][Lu]([O]C(=O)C3)[O]C(=O)C4)N(C)C(=O)[C@H](Cc2ccccc2)NC1=O [RB-0003357]")
"< 1 nM"
>>> assay_value("C[C@@H](O)[C@@H]1NC(=O)[C@H](CCCCN)NC(=O)[C@@H](Cc2c[nH]c3ccccc23)NC(=O)[C@H](Cc2cccnc2)NC(=O)[C@H](CCSCC(=O)NCCCCCCNC(=O)CN2CCN3CCN4CCN(CC2)CC(=O)[O][Lu]([O]C(=O)C3)[O]C(=O)C4)N(C)C(=O)[C@H](Cc2ccccc2)NC1=O [RB-0003000] (cyclo([3Pal][dW]KTF[NMehCys](DOTA(Lu)NH(CH2)6NHCOCH2)))")
"< 1 nM"
>>> assay_value("C[C@@H](O)[C@@H]1NC(=O)[C@H](CCCCN)NC(=O)[C@@H](Cc2c[nH]c3ccccc23)NC(=O)[C@H](Cc2ccncc2)NC(=O)[C@H](CCSCC(=O)NCCCCCCNC(=O)CN2CCN3CCN4CCN(CC2)CC(=O)[O][Lu]([O]C(=O)C3)[O]C(=O)C4)N(C)C(=O)[C@H](Cc2cccnc2)NC1=O [RB-0003445] (cyclo([3Pal][NMehCys](DOTA(Lu)NH(CH2)6NHCOCH2)[4Pal][dW]KT))")
"3.33 to 10 nM"
>>> assay_value("CC(C)[C@@H]1NC(=O)[C@H](CCCCN)N(C)C(=O)[C@@H](Cc2c[nH]c3ccccc23)N(C)C(=O)[C@H](Cc2ccc(O)cc2)NC(=O)[C@H](CCSCC(=O)NCCCCCCNC(=O)CN2CCN3CCN4CCN(CC2)CC(=O)[O][Lu]([O]C(=O)C3)[O]C(=O)C4)N(C)C(=O)[C@H](Cc2ccccc2)NC1=O [RB-0004611] (cyclo(F[NMehCys](DOTA(Lu)NH(CH2)6NHCOCH2)Y[dNMeW][NMeK]V))")
"< 1 nM"

# input Supply measured Ki of C[C@@H](O)[C@@H]1NC(=O)[C@H](CCCCN)NC(=O)[C@@H](Cc2c[nH]c3ccccc23)NC(=O)[C@H](Cc2ccc(O)cc2)NC(=O)[C@H](CCSCC(=O)NCCOCCOCCNC(=O)CN2CCN3CCN4CCN(CC2)CC(=O)[O][Lu]([O]C(=O)C3)[O]C(=O)C4)N(C)C(=O)[C@H](Cc2ccccc2)NC1=O [RB-0005272] in your reply.
# output < 1 nM

# input Supply measured Ki of C[C@@H](O)[C@@H]1NC(=O)[C@H](CCC2CNC2)NC(=O)[C@@H](Cc2c[nH]c3ccccc23)NC(=O)[C@H](Cc2ccc(O)cc2)NC(=O)[C@H](CCSCC(=O)NCCCCCCNC(=O)CN2CCN3CCN4CCN(CC2)CC(=O)[O][Lu]([O]C(=O)C3)[O]C(=O)C4)N(C)C(=O)[C@H](Cc2ccccc2)NC1=O [RB-0005897] (cyclo(F[NMehCys](DOTA(Lu)NH(CH2)6NHCOCH2)Y[dW][X2]T)) in your reply.
# output < 1 nM

# input Supply measured Ki of C[C@@H](O)[C@@H]1NC(=O)[C@H](CC2CCNCC2)NC(=O)[C@@H]([C@@H](C)c2c[nH]c3ccccc23)NC(=O)[C@H](Cc2ccc(O)cc2)NC(=O)[C@H](CCSCC(=O)NCCNC(=O)CN2CCN3CCN4CCN(CC2)CC(=O)[O][Lu]([O]C(=O)C3)[O]C(=O)C4)N(C)C(=O)[C@H](Cc2ccccc2)NC1=O [RB-0005990] (cyclo(F[NMehCys](X17)Y[dTrp(βS-Me)][Ala(piperidin-4-yl)]T)) in your reply.
# output < 1 nM

# input Supply measured Ki of C[C@@H](O)[C@@H]1NC(=O)[C@H](CC2CCNCC2)NC(=O)[C@@H]([C@@H](C)c2c[nH]c3ccccc23)NC(=O)[C@H](Cc2ccc(O)cc2)NC(=O)[C@H](CCSCC(=O)NCCOCCOCCOCCNC(=O)CN2CCN3CCN4CCN(CC2)CC(=O)[O][Lu]([O]C(=O)C3)[O]C(=O)C4)N(C)C(=O)[C@H](Cc2ccccc2)NC1=O [RB-0005994] (cyclo(F[NMehCys](X6)Y[dTrp(βS-Me)][Ala(piperidin-4-yl)]T)) in your reply.
# output < 1 nM

# input Supply measured Ki of C[C@@H](O)[C@@H]1NC(=O)[C@H](CC2CCNCC2)NC(=O)[C@H]2Cc3c([nH]c4ccccc34)CN2C(=O)[C@H](Cc2ccc(O)cc2)NC(=O)[C@H](CCCCNC(=O)CN2CCN3CCN4CCN(CC2)CC(=O)[O][Lu]([O]C(=O)C3)[O]C(=O)C4)N(C)C(=O)[C@H](Cc2ccccc2)NC1=O [RB-0006213] (cyclo(F[NMeK](DOTA(Lu))Y[dTpi][Ala(piperidin-4-yl)]T)) in your reply.
# output 33.3 to 100 nM

# input Supply measured Ki of CNCCCC[C@@H]1NC(=O)[C@@H]([C@@H](C)c2c[nH]c3ccccc23)NC(=O)[C@H](Cc2ccc(O)cc2)NC(=O)[C@H](CCCCNC(=O)CN2CCN3CCN4CCN(CC2)CC(=O)[O][Lu]([O]C(=O)C3)[O]C(=O)C4)N(C)C(=O)[C@H](Cc2ccccc2)NC(=O)[C@H]([C@@H](C)O)NC1=O [RB-0006174] (cyclo(F[NMeK](DOTA(Lu))Y[dTrp(βS-Me)][Lys(Me)]T)) in your reply.
# output < 1 nM
